Recorded values, source patent US20110223131A1.

Assay: Oral bioavailability from crystalline suspension in dog (plasma PK, LC/MS/MS)
Assay type: in vivo, beagle dogs
Conditions: male, beagle, dog, plasma, po, 4 mg/kg, PO 4 mg/kg suspension, dog plasma, Mean column (only one dog calculable)

{"Molecule": "CNC(=O)c1c(O)c2ncc(Cc3ccc(F)cc3)c3c2n(c1=O)C[C@H](C(=O)NC)O3 [Comparator Compound, reference compound]", "AUC(0-inf)": "0.427 µM·h"}

---

Test: Oral bioavailability from crystalline suspension in dog (plasma PK, LC/MS/MS)
Format: in vivo, beagle dogs
Settings: male, beagle, dog, plasma, po, 3 mg/kg, PO 3 mg/kg suspension, dog plasma, mean n = 3; read-out: Tmax
Protocol: Oral Bioavailability-Determination of Oral Bioavailability of Integrase Inhibitors from Crystalline Suspension in Dog The in-life phase of these studies was carried out at SRI, Menlo Park, Calif. […] Dosing solutions were analyzed using un-used portions of the dosing solutions, and aliquots of approximately 1 mL of each dosing solution were saved. The concentration of compound in the dosing solution was measured with an HPLC-UV method. […]

{"Entry Smiles": "CNC(=O)c1c(O)c2ncc(Cc3ccc(F)cc3)c3c2n(c1=O)C[C@](C)(c1nnc(C)o1)O3", "Tmax": "~1.33 h"}
